molecular target: Genome polyprotein (dengue virus type 2, UniProt P29990); test: flavivirus cap methylation enzyme inhibition – biochemical, confirmation dose response, primary screen (AID 588689); type: functional
Active and inactive are the calls of the source. How the calls were made is not given here.

substance_smiles: Nc1scc2c(C(=O)N/N=C/c3ccc(Cl)cc3)nn(-c3ccccc3)c(=O)c12
IC50: 70.6 µM (active)

substance_smiles: O=C1NC(=O)C(=Cc2ccc3ccccc3c2)C(=O)N1
IC50: 50.8 µM (active)

substance_smiles: O=C(CCN1C(=O)/C(=C\c2ccco2)SC1=S)Nc1ccc(C(=O)O)c(O)c1
IC50: > 100 µM (active)

substance_smiles: C=CS(=O)(=O)c1sc(Cl)c(N2CCOCC2)c1[N+](=O)[O-]
IC50: 11 µM (active)

substance_smiles: O=C1/C(=N\S(=O)(=O)c2ccc([N+](=O)[O-])cc2)C(Cl)=C(O)c2ccccc21
IC50: 76.9 µM (active)

substance_smiles: COC(=O)C1=CN(c2cccc(C)c2)C=C(C(=O)OC)C1c1cc(OC)c(O)c([N+](=O)[O-])c1
IC50: 56.5 µM (active)

substance_smiles: COc1ccccc1Nc1ccc2c(O)cc(S(=O)(=O)O)cc2c1
IC50: 60.5 µM (active)

substance_smiles: O=C1C=C(c2c(O)ccc3ccccc23)c2ccccc2C1=O
IC50: 5.91 µM (active)

###

test: cells; assay type: functional
Activity calls are given as the source filed them. The rule behind the calls is not given here.
measured_property: IC50

molecule: O=S1(=O)N=C(N/N=C/C=C/c2ccccc2)c2ccccc21
measured_property: IC50
value_measured: 30.6 µM (active)
//
molecule: Cc1nc2c(=O)n(C)c(=O)nc-2n(C)n1
measured_property: IC50
value_measured: 2.27 µM (active)
//
molecule: CCOC(=O)c1cc(-c2c(Cl)cccc2Cl)no1
measured_property: IC50
value_measured: 23 µM (active)
//
molecule: O=[N+]([O-])c1c(O)oc2ccccc2/c1=N\c1ccccc1O
measured_property: IC50
value_measured: 7.4 µM (active)
//
molecule: CCOCC(=O)Nc1ccc(C)c(Cl)c1
measured_property: IC50
value_measured: 37.1 µM (active)
//
molecule: COc1ccc(N2C(=O)C(F)(F)C2c2cccc(F)c2)cc1 (stereo not drawn)
measured_property: IC50
value_measured: 5.74 µM (active)
//
molecule: CCOC(=O)C1CCCc2c1[nH]c1c(C(N)=O)cccc21 (stereo not drawn)
measured_property: IC50
value_measured: 5.22 µM (active)
//
molecule: Cc1ccc(C(=O)Oc2cccc(-n3cnnn3)c2)cc1
measured_property: IC50
value_measured: 13.7 µM (active)

###

molecular target: Nonstructural protein 1 (Influenza A virus, UniProt Q194T2); format: functional, Influenza A virus (A/California/07/2009(H1N1))
Sequence (Q194T2 whole entry): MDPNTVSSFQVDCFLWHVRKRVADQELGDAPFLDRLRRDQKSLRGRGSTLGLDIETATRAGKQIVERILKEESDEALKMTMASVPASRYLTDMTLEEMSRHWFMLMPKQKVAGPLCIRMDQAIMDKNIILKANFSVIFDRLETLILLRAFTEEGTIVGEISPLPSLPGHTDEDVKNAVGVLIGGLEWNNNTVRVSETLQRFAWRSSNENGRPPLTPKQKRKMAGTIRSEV
Activity calls are given as the source filed them.
measured_property: IC50

compound: O=S1(=O)N=C(N/N=C/c2ccccn2)c2ccccc21
value_measured: 3.27 µM (active)
--
compound: O=C1C=C(c2c(O)ccc3ccccc23)c2ccccc2C1=O
value_measured: 46.5 µM (active)
--
compound: COc1cccc(/C=N/N2C(=O)CSC2=S)c1O
value_measured: 2.19 µM (active)
--
compound: O=C(Cn1cncn1)N/N=C/c1ccccc1O
value_measured: 22.1 µM (active)
--
compound: CCOC(=O)C1=NN(c2ccccc2)C(=O)/C1=C\c1ccc(N(C)C)cc1
value_measured: > 100 µM (active)
--
compound: CCNC(=O)C(=O)N/N=C/c1cc([N+](=O)[O-])ccc1O
value_measured: 2.44 µM (active)
--
compound: CCCCCc1cc(=O)oc2c(C(CCN(CC)CC)c3ccc(N(C)C)cc3)c(OC)cc(OC)c12 (configuration not stated)
value_measured: 9.17 µM (active)
